B1: Barstar, P11540 (parent)
chain: MKKAVINGEQIRSISDLHQTLKKELALPEYYGENLDALWDCLTGWVEYPLVLEWRQFEQSKQLTENGAESVLQVFREAKAEGCDITIILS

variants of: B1; settings: Bacillus amyloliquefaciens; pH 8; 10 °C; Urea; CD; Tris Cl 50 mM; KCl 100 mM; structure 1BTA; whole UniProt chain shown
QUANTITY_MEASURED: ddG of mutation (higher = less stable) (kcal/mol)

>>> print(df.to_string())
   mutation_spec                       quantity_measured  assay_result
0           L52V  ddG of mutation (higher = less stable)           0.6
1            I6V  ddG of mutation (higher = less stable)             1
2           L17V  ddG of mutation (higher = less stable)           1.1
3           L35V  ddG of mutation (higher = less stable)           1.1
